Experiment: Quantitative High-Throughput drug screen in 47 multiple myeloma cell lines against the NCATS MIPE library collection: FR4_PLB cell viability assay (AID 1918924; further: nearly all actives have a fitted effect of over 35% in size)
Conditions: FR4_PLB myeloma cells viability, CellTiter-Glo ATP, 48 h; series mostly up to 45.8 µM
Inconclusive results are not listed. Calls of active or inactive are those of the source. The call rests on the fitted dose curve; in most records, active means well fitted cell-killing curve with a large enough effect; inconclusive means small, poorly fitted or top-dose-only effect, or effect the other way; inactive means no such curve, though single readings can be large or run the other way.
Your answer must be one of the following: active, inactive

[
  {
    "compound": "CCNC(=O)CCCC=CC[C@@H]1[C@H](C=CC(O)CCc2ccccc2)[C@@H](O)C[C@@H]1O (stereo partly specified)",
    "cat": "inactive"
  },
  {
    "compound": "C[C@@H]1O[C@@H](O[C@H]2CC[C@@]3(C)[C@H](CC[C@@H]4[C@H]3C[C@@H](O)[C@]3(C)[C@@H](C5=CC(=O)OC5)CC[C@]43O)C2)C[C@H](O)[C@@H]1O[C@H]1C[C@H](O)[C@H](O[C@H]2C[C@H](O)[C@@H](O)[C@@H](C)O2)[C@H](C)O1 (stereo in doubt)",
    "cat": "active"
  },
  {
    "compound": "Cc1ccccc1-n1c(Cn2nc(-c3cccc(O)c3)c3c(N)ncnc32)nc2cccc(C)c2c1=O",
    "cat": "active"
  },
  {
    "compound": "CCOC(=O)[C@H](CCc1ccccc1)N[C@@H](C)C(=O)N1CCCC1C(=O)O (stereo partly specified)",
    "cat": "inactive"
  },
  {
    "compound": "O[C@@H](COc1cccc2ncccc12)CN1CCN(C2c3ccccc3[C@@H]3[C@H](c4ccccc42)C3(F)F)CC1 (stereo partly specified)",
    "cat": "active"
  },
  {
    "compound": "CSc1cccc(Nc2ncc3cc(-c4c(Cl)cccc4Cl)c(=O)n(C)c3n2)c1",
    "cat": "active"
  }
]

Which outcome was assigned to Cc1cnc(-c2cc(N3CCN(C(=O)CCS(C)(=O)=O)CC3)ncc2Cl)c(C)c1 in this test?
inactive

What do we get for C[C@]12CC[C@@H]3c4ccc(O)cc4CC[C@H]3[C@H]1[C@@H](O)[C@@H](O)[C@H]2O ?
inactive

What do we get for COc1cc2nccc(Oc3ccc(NC(=O)Nc4cc(C)on4)c(Cl)c3)c2cc1OC ?
active
